- System: LOVO cells
- PROCEDURE TEXT: LOVO CTG proliferation assay (120 h) (CRC, G13D)
- Assay type: cell-based
- MEASUREMENT CONTEXT: Homo sapiens, CTG 120 h
pIC50: recorded values
The quantity pIC50 is defined as the negative base-10 logarithm of the molar concentration.

Entry under review: C[C@H](Oc1cc(-n2cc3ccn([C@@H](C)c4ccccn4)c(=O)c3n2)nc(-c2noc3c2CCC[C@@]32CCCc3sc(N)c(C#N)c32)n1)[C@@H]1CCCN1C [II-205] . Reported pIC50?
7.66

New cases:
Entry under review: COCc1cn(-c2cc(O[C@@H](C)[C@@H]3CCCN3C)nc(-c3noc4c3CCC[C@@]43CCCc4sc(N)c(C#N)c43)n2)nn1 [II-121] . Reported pIC50?
6.89

One more compound: C[C@H](Oc1cc(N2C[C@H](C)NC3(CC3)C2)nc(-c2noc3c2CCC[C@@]32CCCc3sc(N)c(C#N)c32)n1)[C@@H]1C[C@@H](F)CN1C [II-18]
7.31

One more compound: C[C@H](Oc1cc(-n2cc(Cn3cncn3)nn2)nc(-c2noc3c2CCC[C@@]32CCCc3sc(N)c(C#N)c32)n1)[C@@H]1CCCN1C [II-124]
6.89

One more compound: CO[C@H]1CCN(C)[C@@H]1[C@H](C)Oc1cc(-n2ccc(C(N)=O)n2)nc(-c2noc3c2CCC[C@@]32CCCc3sc(N)c(C#N)c32)n1 [II-201]
7.48

One more compound: C[C@H](Oc1cc(N2CCN(C)C3(CC3)C2)nc(-c2noc3c2CCC[C@@]32CCCc3sc(N)c(C#N)c32)n1)[C@@H]1CCCN1C [II-171]
6.23

One more compound: C[C@H](Oc1cc([C@@H]2CCN(C)C2)nc(-c2noc3c2CCC[C@@]32CCCc3sc(N)c(C#N)c32)n1)[C@@H]1CCCN1C [II-37]
6.16

One more compound: C[C@H](Oc1cc(-c2ccn(C[C@@H](C)O)n2)nc(-c2onc3c2CCC[C@@]32CCCc3sc(N)c(C#N)c32)n1)[C@@H]1CCCN1C [I-30]
7.18

One more compound: C[C@H](Oc1cc(N2CCNC3(CCCC3)C2)nc(-c2noc3c2CCC[C@@]32CCCc3sc(N)c(C#N)c32)n1)[C@@H]1CCCN1C [II-41]
6.15

One more compound: C[C@H](Oc1cc(-c2ccn(C3COC3)n2)nc(-c2noc3c2CCC[C@@]32CCCc3sc(N)c(C#N)c32)n1)[C@@H]1CCCN1C [II-109]
7.12

One more compound: C[C@H](Oc1nc(-c2noc3c2CCC[C@@]32CCCc3sc(N)c(C#N)c32)nc(N2CCN(C)C3(CC3)C2)c1Cl)[C@@H]1C[C@@H](F)CN1C [II-176]
5.57

One more compound: CO[C@H]1CCN(C)[C@@H]1[C@H](C)Oc1cc(-n2ccc(C(=O)N[C@@H](C)c3ccccn3)n2)nc(-c2noc3c2CCC[C@@]32CCCc3sc(N)c(C#N)c32)n1 [II-196]
7.82

One more compound: C[C@H](Oc1cc(-n2cc3c(n2)CCNC3)nc(-c2noc3c2CCC[C@@]32CCCc3sc(N)c(C#N)c32)n1)[C@@H]1CCCN1C [II-53]
6.31

One more compound: C[C@H](Oc1cc(-c2ccn(C3CC3)n2)nc(-c2noc3c2CCC[C@@]32CCCc3sc(N)c(C#N)c32)n1)[C@@H]1CCCN1C [II-98]
6.22

One more compound: C[C@@H]1CN(c2cc(O[C@@H](C)[C@@H]3CCCN3C)nc(-c3noc4c3CCC[C@@]43CCCc4sc(N)c(C#N)c43)n2)CCN1 [II-161]
6.33

One more compound: C[C@H](Oc1cc(-c2cccc(CO)c2)nc(-c2noc3c2CCC[C@@]32CCCc3sc(N)c(C#N)c32)n1)[C@@H]1CCCN1C [II-97]
6.17

====

- TEST TARGET: KRAS (WT)::SOS1 (Homo sapiens (Human), UniProt P01116, C118S)
- Sequence (P01116 other isoform, or with tags, fused parts or gaps C118S): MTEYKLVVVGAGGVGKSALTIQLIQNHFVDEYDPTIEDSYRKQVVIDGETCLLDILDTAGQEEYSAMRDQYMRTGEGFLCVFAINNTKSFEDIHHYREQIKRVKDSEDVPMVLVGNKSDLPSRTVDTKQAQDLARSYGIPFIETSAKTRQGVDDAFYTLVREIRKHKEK
- PROCEDURE TEXT: KRAS::SOS1 AlphaScreen binding assay, KRAS WT
PROPERTY NAME: pIC50
The quantity pIC50 is defined as the negative base-10 logarithm of the molar concentration.

Some entries whose results are on file:
Entry under review: C[C@H](Oc1cc(N2CCN(C)C3(CC3)C2)nc(-c2onc3c2CCC[C@@]32CCCc3sc(N)c(C#N)c32)n1)[C@@H]1C[C@@H](F)CN1C [I-39] . Reported pIC50?
7.96

One more molecule: C[C@H](Oc1cc(-n2ccc(-c3cn(C4CCOCC4)nn3)n2)nc(-c2noc3c2CCC[C@@]32CCCc3sc(N)c(C#N)c32)n1)[C@@H]1CCCN1C [II-210]
8.15

Switching to the query record.
Entry under review: C[C@H](Oc1cc(N2CCN[C@@H](C)C2)nc(-c2noc3c2CCC[C@@]32CCCc3sc(N)c(C#N)c32)n1)[C@@H]1CCCN1C [II-162] . Reported pIC50?
8.10

====

- PROCEDURE TEXT: Solubility measurement (DMSO solution method), McIlvaine buffer pH 4.5 or 6.8
- Type: physicochemical
- MEASUREMENT CONTEXT: aqueous buffer, kinetic from dmso stock; McIlvaine buffer pH 4.5; DMSO stock diluted to 250 μM; 24 h shaking at ambient temperature; read-out: solubility pH 4.5
PROPERTY NAME: solubility at 24 h

Some entries whose results are on file:
Entry under review: C[C@H]1CN(C)CCCN1c1cc(N2CCN(C)CC2)nc(-c2noc3c2CCC[C@@]32CCCc3sc(N)c(C#N)c32)n1 . Reported solubility at 24 h?
> 136 µg/mL

One more compound: C[C@H](Oc1cc(N2CCNC(C)(C)C2)nc(-c2noc3c2CCC[C@@]32CCCc3sc(N)c(C#N)c32)n1)[C@@H]1CCCN1C
> 121 µg/mL

Switching to the query record.
Entry under review: C[C@H](Oc1cc(-n2cc(Cn3cncn3)nn2)nc(-c2noc3c2CCC[C@@]32CCCc3sc(N)c(C#N)c32)n1)[C@@H]1CCCN1C . Reported solubility at 24 h?
> 148 µg/mL

====

- Tested on: KRAS G12C-dependent Ba/F3 cells
- PROCEDURE TEXT: Ba/F3 proliferation assay, KRAS G12C
- Assay type: cell-based
- MEASUREMENT CONTEXT: Mus musculus, BaF3, 72 h, AlamarBlue
PROPERTY NAME: IC50

Entry under review: C[C@H](Oc1cc(-n2ccnn2)nc(-c2noc3c2CCC[C@@]32CCCc3sc(N)c(C#N)c32)n1)[C@@H]1CCCN1C [II-108] . Reported IC50?
15 nM

One more compound: C[C@H](Oc1cc(-n2ccc(-c3cn(CC4(C)COC4)nn3)n2)nc(-c2noc3c2CCC[C@@]32CCCc3sc(N)c(C#N)c32)n1)[C@@H]1CCCN1C [II-213]
11 nM

One more compound: C[C@H](O)Cn1ccc(-c2cc(O[C@@H](C)[C@@H]3CCCN3C)nc(-c3noc4c3CCC[C@@]43CCCc4sc(N)c(C#N)c43)n2)n1 [II-112]
11 nM

====

- PROCEDURE TEXT: Metabolic (microsomal) stability assay, human liver microsomes (HLM)
- Assay type: in vitro ADME
- MEASUREMENT CONTEXT: predicted clearance as percent of liver blood flow, 1 μM
HLM QH: recorded values

Some entries whose results are on file:
Entry under review: C[C@H](Oc1cc(-c2ccn(-c3ccccc3)n2)nc(-c2noc3c2CCC[C@@]32CCCc3sc(N)c(C#N)c32)n1)[C@@H]1CCCN1C [II-89] . Reported HLM QH?
<24%

One more compound: C[C@H](Oc1cc(N2CCN[C@@H](C)C2)nc(-c2noc3c2CCC[C@@]32CCCc3sc(N)c(C#N)c32)n1)[C@@H]1CCCN1C [II-162]
<24%

Switching to the query record.
Entry under review: C[C@H](NC(=O)c1ccn(-c2cc(O[C@@H](C)[C@@H]3CCCN3C)nc(-c3onc4c3CCC[C@@]43CCCc4sc(N)c(C#N)c43)n2)n1)c1ccccn1 [I-59] . Reported HLM QH?
<24%

====

- Test system: KRAS G12V-dependent Ba/F3 cells
- PROCEDURE TEXT: Ba/F3 proliferation assay, KRAS G12V;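 also: proliferation IC50 in KRAS G12V-dependent Ba/F3 cells read by AlamarBlue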
- Assay type: cell-based
- MEASUREMENT CONTEXT: Mus musculus, BaF3, 72 h, AlamarBlue
log10 IC50: recorded values
Please be aware that the numbers have been log10-transformed from IC50 in nM.

Some entries whose results are on file:
Entry under review: C[C@H](Oc1cc(-c2ccn(C[C@@H](C)O)n2)nc(-c2onc3c2CCC[C@@]32CCCc3sc(N)c(C#N)c32)n1)[C@@H]1CCCN1C . Reported log10 IC50?
0.90

One more molecule: C[C@H](Oc1cc(-c2ccccn2)nc(-c2noc3c2CCC[C@@]32CCCc3sc(N)c(C#N)c32)n1)[C@@H]1CCCN1C
0.90

One more molecule: CO[C@H]1CCN(C)[C@@H]1[C@H](C)Oc1cc(-n2ccc(C(=O)N(C)C3COC3)n2)nc(-c2noc3c2CCC[C@@]32CCCc3sc(N)c(C#N)c32)n1
0.48

One more molecule: C[C@H](Oc1cc(N2CCNC(C)(C)C2)nc(-c2noc3c2CCC[C@@]32CCCc3sc(N)c(C#N)c32)n1)[C@@H]1CCCN1C
3.09

One more molecule: CO[C@H]1CCN(C)[C@@H]1[C@H](C)Oc1cc(N2CCNC3(CC3)C2)nc(-c2onc3c2CCC[C@@]32CCCc3sc(N)c(C#N)c32)n1
2.26

New cases:
Entry under review: C[C@H](Oc1cc(-n2cncn2)nc(-c2onc3c2CCC[C@@]32CCCc3sc(N)c(C#N)c32)n1)[C@@H]1CCCN1C . Reported log10 IC50?
0.90

One more molecule: C[C@H](Oc1cc([C@H]2CCOC2)nc(-c2noc3c2CCC[C@@]32CCCc3sc(N)c(C#N)c32)n1)[C@@H]1CCCN1C
0.78

One more molecule: C[C@H](Oc1cc(N2CCN3CCC3C2)nc(-c2onc3c2CCC[C@@]32CCCc3sc(N)c(C#N)c32)n1)[C@@H]1CCCN1C (stereo partly drawn)
2.70

One more molecule: CCN1CCN(c2cc(O[C@@H](C)[C@@H]3C[C@@H](F)CN3C)nc(-c3noc4c3CCC[C@@]43CCCc4sc(N)c(C#N)c43)n2)CC12CC2
2.52
